- Test system: SMN protein
- Assay Procedure: cellular SMN ELISA (SMN protein elevation)
- Type: cell-based
- Conditions Used: myoblast cell line derived from SMNdelta7 mouse model; 24 hours compound treatment; concentration range 100 pM-10 uM
EC50 strictly less than 90 nM = true (1). Otherwise false (0).

Threshold test, EC50 < 90 nM: `CN(c1nnc(-c2ccc(-c3ccc(=O)[nH]c3)cc2Cl)s1)C1CC(C)(C)NC(C)(C)C1`
false (0)

Threshold test, EC50 < 90 nM: `COc1cc2nc(C#N)ccc2cc1-c1nnc(N(C)C2CC(C)(C)NC(C)(C)C2)s1`
true (1)

Threshold test, EC50 < 90 nM: `CN(c1nnc(-c2cc(F)c(-c3ccn[nH]3)cc2F)s1)C1CC(C)(C)NC(C)(C)C1`
true (1)

Threshold test, EC50 < 90 nM: `COc1cc(-n2cccn2)ccc1-c1nnc(NC2CC(C)(C)N(C)C(C)(C)C2)s1`
true (1)

Threshold test, EC50 < 90 nM: `CN(c1nnc(-c2cc(F)c(-c3cn[nH]c3)cc2Cl)s1)C1CC(C)(C)NC(C)(C)C1`
true (1)

Threshold test, EC50 < 90 nM: `CN(c1nnc(-c2ccc(-c3cnn(C)c3)cc2Cl)s1)C1CC(C)(C)NC(C)(C)C1`
false (0)

Threshold test, EC50 < 90 nM: `CN(c1nnc(-c2ccc(-c3ccn(C)c(=O)c3)cc2O)s1)C1CC(C)(C)NC(C)(C)C1`
true (1)

Threshold test, EC50 < 90 nM: `COC(=O)c1ccc(-c2nnc(N(C)C3CC(C)(C)NC(C)(C)C3)s2)c(F)c1`
false (0)

Threshold test, EC50 < 90 nM: `Cn1cc(-c2ccc(-c3nnc(N4CC5(CCCNC5)C4)s3)c(O)c2)cn1`
false (0)

Threshold test, EC50 < 90 nM: `CN(c1nnc(-c2cc3ccccc3[nH]c2=O)s1)C1CC(C)(C)NC(C)(C)C1`
false (0)

Threshold test, EC50 < 90 nM: `COc1cc(-c2ccc(O)nc2)ccc1-c1nnc(N(C)C2CC(C)(C)NC(C)(C)C2)s1`
false (0)

###

- Tested on: SMN protein
- Assay Procedure: cellular SMN ELISA (SMN protein elevation)
- Type: cell-based
- Conditions Used: myoblast cell line derived from SMNdelta7 mouse model; 24 hours compound treatment; concentration range 100 pM-10 uM
Measured Property: SMN Activity Fold (fold activation over DMSO control) (fold)
Kindly answer with a numeric value in fold, unit omitted.

Please give the documented SMN Activity Fold (fold activation over DMSO control) of COc1cc(-n2cccn2)ccc1-c1nnc(CC2CC(C)(C)NC(C)(C)C2)s1 [Example 98]
2.19

Please give the documented SMN Activity Fold (fold activation over DMSO control) of CN1C[C@@H]2CN(c3nnc(-c4ccc(-c5cn[nH]c5)cc4F)s3)C[C@@H]2C1 [Example 84]
2.11

Please give the documented SMN Activity Fold (fold activation over DMSO control) of COc1nc2ccccc2cc1-c1nnc(N(C)C2CC(C)(C)NC(C)(C)C2)s1 [Example 3]
2.67

Please give the documented SMN Activity Fold (fold activation over DMSO control) of COc1cc(-c2ccc(=O)n(C)c2)ccc1-c1nnc(N(C)C2CC(C)(C)NC(C)(C)C2)s1 [Example 10]
2.65

Please give the documented SMN Activity Fold (fold activation over DMSO control) of COc1cc(-n2cccn2)ccc1-c1nnc(C2=CCNCC2)s1 [Example 29]
2.46

Please give the documented SMN Activity Fold (fold activation over DMSO control) of CN(c1nnc(-c2cc3ccccc3cc2O)s1)C1CC(C)(C)NC(C)(C)C1 [Example 22]
2.70

###

Would you mind telling me the reported pEC50 of each entry?
- Test system: SMN protein
- Assay Procedure: cellular SMN ELISA (SMN protein elevation)
- Format: cell-based
- Conditions Used: myoblast cell line derived from SMNdelta7 mouse model; 24 hours compound treatment; concentration range 100 pM-10 uM
- Experimental: A cellular SMN ELISA was used to measure the effects of low molecular weight compounds on SMN protein elevation. Cells from a myoblast cell line derived from the SMNdelta7 mouse model (kind gift from Steve Burden, NYU) were seeded into a 384-well plate at a density of 3000 cells/well and treated with compounds for 24 hours. […] The reaction was stopped by addition of 40 uL of stop solution (Cell signaling, Catalog number 7002L) and absorption was measured at 450 nm. […]
Where a name gives a salt, the structure may show the parent alone.
FYI, pEC50 means -log10 of a concentration in mol per litre.

Please give the documented pEC50 of CN1CCC2(CCCN(c3nnc(-c4ccc(-c5cn[nH]c5)cc4Cl)s3)C2)C1 (centres unmarked)
5.48

Please give the documented pEC50 of `COc1cc2ncccc2cc1-c1nnc(N(C)C2CC(C)(C)NC(C)(C)C2)s1`
6.95

Please give the documented pEC50 of `COc1cc(-c2ccn[nH]2)ccc1-c1nnc(N(C)C2CC(C)(C)NC(C)(C)C2)s1`
6.96

Please give the documented pEC50 of `CN(c1nnc(-c2c(O)c3ccccc3n(C)c2=O)s1)C1CC(C)(C)NC(C)(C)C1`
7.62

Please give the documented pEC50 of `CN(c1nnc(-c2ccc(-c3ccn(C)c(=O)c3)cc2OC(F)(F)F)s1)C1CC(C)(C)NC(C)(C)C1`
6.05

Please give the documented pEC50 of Oc1cc(-c2cn[nH]c2)cc(F)c1-c1nnc(N2C[C@H]3CNC[C@H]3C2)s1 [Example 96, hydrochloride salt]
8.05

Please give the documented pEC50 of `CN1C[C@@H]2CN(c3nnc(-c4ccc(-c5cn[nH]c5)cc4F)s3)C[C@@H]2C1`
6.71

Please give the documented pEC50 of `CN(c1nnc(-c2ccc(-c3cn[nH]c3)cc2O)s1)C1CC(C)(C)NC(C)(C)C1`
6.39

Please give the documented pEC50 of `CN(c1nnc(-c2ccc(-n3ccnn3)cc2Cl)s1)C1CC(C)(C)NC(C)(C)C1`
6.89

Please give the documented pEC50 of `Oc1cc(-n2cccn2)ccc1-c1nnc(N2CCNCC2)s1`
5.18

Please give the documented pEC50 of `CN(c1nnc(-c2ccc(-n3nccn3)cc2Cl)s1)C1CC(C)(C)NC(C)(C)C1`
6.80

Please give the documented pEC50 of `OC[C@H]1CN(c2nnc(-c3ccc(-c4cn[nH]c4)cc3Cl)s2)CCN1`
5.34

Please give the documented pEC50 of `CN(c1nnc(-c2ccc(-n3cccn3)cc2Cl)s1)C1CC(C)(C)NC(C)(C)C1`
6.56

Please give the documented pEC50 of `CN(c1nnc(-c2cc3cc(C#N)ccc3s2)s1)C1CC(C)(C)NC(C)(C)C1`
6.27

###

Would you mind telling me the reported EC50 of each entry?
- Tested on: SMN protein
- Assay Procedure: cellular SMN ELISA (SMN protein elevation)
- Type: cell-based
- Conditions Used: myoblast cell line derived from SMNdelta7 mouse model; 24 hours compound treatment; concentration range 100 pM-10 uM
Kindly answer with a numeric value in nM, unit omitted.

Answer with EC50 of COc1cc(-c2sc(C)nc2C)ccc1-c1nnc(N(C)C2CC(C)(C)NC(C)(C)C2)s1 [Example 74] measured for SMN protein.
85

Answer with EC50 of CN(c1nnc(-c2c(F)cc(-c3cn[nH]c3)cc2F)s1)C1CC(C)(C)NC(C)(C)C1 [Example 52] measured for SMN protein.
61

Answer with EC50 of COc1cc(-c2cn[nH]c2)ccc1-c1nnc(N(C)C2CC(C)(C)NC(C)(C)C2)s1 [Example 7] measured for SMN protein.
38

Answer with EC50 of COc1cc(-c2cn[nH]c2)cc(F)c1-c1nnc(N(C)C2CC(C)(C)NC(C)(C)C2)s1 [Example 61] measured for SMN protein.
95

Answer with EC50 of CN(c1nnc(-c2ccc(-c3cnn4c3CCCC4)cc2Cl)s1)C1CC(C)(C)NC(C)(C)C1 [Example 41] measured for SMN protein.
507

Answer with EC50 of COc1ccc(-c2ccc(-c3nnc(N(C)C4CC(C)(C)NC(C)(C)C4)s3)c(OC)c2)cn1 [Example 78] measured for SMN protein.
165

Answer with EC50 of CN(c1nnc(-c2cc(-n3cccn3)ccc2O)s1)C1CC(C)(C)NC(C)(C)C1 [Example 24] measured for SMN protein.
987

Answer with EC50 of CN(c1nnc(-c2ccc(-c3ccc(=O)n(C)c3)cc2O)s1)C1CC(C)(C)NC(C)(C)C1 [Example 17] measured for SMN protein.
36

Answer with EC50 of CN1C[C@@H]2CN(c3nnc(-c4ccc(-n5ccnc5)cc4Cl)s3)C[C@@H]2C1 [Example 70] measured for SMN protein.
2570

Answer with EC50 of COc1cc(-n2cccn2)ccc1-c1nnc(CC2CC(C)(C)NC(C)(C)C2)s1 [Example 98] measured for SMN protein.
818

Answer with EC50 of CN(c1nnc(-c2cc3ccccc3nc2O)s1)C1CC(C)(C)NC(C)(C)C1 [Example 23] measured for SMN protein.
231

Answer with EC50 of CN(c1nnc(-c2ccc(-n3ccc(N)n3)cc2Cl)s1)C1CC(C)(C)NC(C)(C)C1 [Example 69] measured for SMN protein.
171

Answer with EC50 of CN(c1nnc(-c2ccc3cc(O)ccc3c2)s1)C1CC(C)(C)NC(C)(C)C1 [Example 2] measured for SMN protein.
436
